# assay_details: Volume of distribution in Sprague-Dawley rat at 1 mg/kg, iv or 5 mg/kg, po
# Type: ADME, organism-based
# setup_conditions: in vivo
endpoint: Vd (L/kg)
Report the value in L/kg with no unit label.

given_smiles=C[C@@H]1OCC2(CCN(c3nc4[nH]nc(-c5cccc(Cl)c5Cl)c4c(=O)n3C)CC2)[C@@H]1N units_of_measure=L/kg measured_value=10.5

Let us move to another entry and its Vd.
Prompt: Request the reported Vd associated with `C[C@@H]1OCC2(CCN(c3nc4[nH]nc(-c5ccnc(NC6CC6)c5Cl)c4c(=O)n3C)CC2)[C@@H]1N`
Response: 3.9

====

# assay_details: Oral bioavailability in Sprague-Dawley rat at 5 mg/kg
# Type: ADME, organism-based
# setup_conditions: in vivo
endpoint: bioavailability (%)
Expressed in %, but write only the number.

given_smiles=C[C@@H]1OCC2(CCN(c3nc4[nH]nc(-c5cccc(Cl)c5Cl)c4c(=O)n3C)CC2)[C@@H]1N endpoint=bioavailability measured_value=51

Continue with the next molecule.
Prompt: Consider the molecule `C[C@@H]1OCC2(CCN(c3nc4[nH]nc(-c5ccnc(NC6CC6)c5Cl)c4c(=O)n3C)CC2)[C@@H]1N` and give its measured bioavailability.
Response: 2
